- System Name: UniProtKB P14550
- Sequence (P14550 whole entry): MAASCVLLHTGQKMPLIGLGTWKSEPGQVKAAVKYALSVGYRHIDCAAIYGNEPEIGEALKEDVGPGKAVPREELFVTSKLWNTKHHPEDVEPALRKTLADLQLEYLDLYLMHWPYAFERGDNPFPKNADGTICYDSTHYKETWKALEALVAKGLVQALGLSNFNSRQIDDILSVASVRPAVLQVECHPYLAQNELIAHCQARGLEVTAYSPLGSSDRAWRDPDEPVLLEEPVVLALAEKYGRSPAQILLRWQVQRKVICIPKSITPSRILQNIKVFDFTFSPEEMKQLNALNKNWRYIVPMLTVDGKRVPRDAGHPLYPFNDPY
- Procedure Summary: In vitro inhibition of recombinant human aldehyde reductase
pIC50: −log10 of the molar value.
Documented pIC50 across a set of molecules
Recorded Metric: pIC50

O=C(O)Cn1cc(Cc2nc3c(F)cc(F)cc3s2)c2ccccc21 = 5.29
O=C(O)Cn1cc(Cc2nc3cc(F)c(F)cc3s2)c2ccccc21 = 4.89
O=C(O)Cn1cc(Cc2nc3c(F)c(F)cc(F)c3s2)c2cc(Br)ccc21 = 5.33
O=C(O)Cn1cc(Cc2nc3cc(C(F)(F)F)ccc3s2)c2cc(Cl)ccc21 = 5.31
O=C(O)Cc1nn(Cc2nc3cc(C(F)(F)F)ccc3s2)c(=O)c2ccccc12 = 4.41
O=C(O)Cn1cc(Cc2nc3ccc(Cl)cc3s2)c2ccccc21 = 5.68
O=C(O)Cn1cc(CCc2nc3c(F)c(F)cc(F)c3s2)c2ccccc21 = 4.96
O=C(O)Cn1c(=O)n(Cc2ccc(Br)cc2F)c(=O)c2ccc(Cl)cc21 = 5.00
O=C(O)Cn1cc(Cc2nc3c(F)c(F)cc(F)c3s2)c2ccc(-c3ccccc3)cc21 = 5.21
O=C(O)Cn1cc(Cc2nc3c(F)cccc3s2)c2ccccc21 = 4.96
